targetOrSystem: HDAC6 (Homo sapiens)
Sequence (Q9UBN7 1-1215): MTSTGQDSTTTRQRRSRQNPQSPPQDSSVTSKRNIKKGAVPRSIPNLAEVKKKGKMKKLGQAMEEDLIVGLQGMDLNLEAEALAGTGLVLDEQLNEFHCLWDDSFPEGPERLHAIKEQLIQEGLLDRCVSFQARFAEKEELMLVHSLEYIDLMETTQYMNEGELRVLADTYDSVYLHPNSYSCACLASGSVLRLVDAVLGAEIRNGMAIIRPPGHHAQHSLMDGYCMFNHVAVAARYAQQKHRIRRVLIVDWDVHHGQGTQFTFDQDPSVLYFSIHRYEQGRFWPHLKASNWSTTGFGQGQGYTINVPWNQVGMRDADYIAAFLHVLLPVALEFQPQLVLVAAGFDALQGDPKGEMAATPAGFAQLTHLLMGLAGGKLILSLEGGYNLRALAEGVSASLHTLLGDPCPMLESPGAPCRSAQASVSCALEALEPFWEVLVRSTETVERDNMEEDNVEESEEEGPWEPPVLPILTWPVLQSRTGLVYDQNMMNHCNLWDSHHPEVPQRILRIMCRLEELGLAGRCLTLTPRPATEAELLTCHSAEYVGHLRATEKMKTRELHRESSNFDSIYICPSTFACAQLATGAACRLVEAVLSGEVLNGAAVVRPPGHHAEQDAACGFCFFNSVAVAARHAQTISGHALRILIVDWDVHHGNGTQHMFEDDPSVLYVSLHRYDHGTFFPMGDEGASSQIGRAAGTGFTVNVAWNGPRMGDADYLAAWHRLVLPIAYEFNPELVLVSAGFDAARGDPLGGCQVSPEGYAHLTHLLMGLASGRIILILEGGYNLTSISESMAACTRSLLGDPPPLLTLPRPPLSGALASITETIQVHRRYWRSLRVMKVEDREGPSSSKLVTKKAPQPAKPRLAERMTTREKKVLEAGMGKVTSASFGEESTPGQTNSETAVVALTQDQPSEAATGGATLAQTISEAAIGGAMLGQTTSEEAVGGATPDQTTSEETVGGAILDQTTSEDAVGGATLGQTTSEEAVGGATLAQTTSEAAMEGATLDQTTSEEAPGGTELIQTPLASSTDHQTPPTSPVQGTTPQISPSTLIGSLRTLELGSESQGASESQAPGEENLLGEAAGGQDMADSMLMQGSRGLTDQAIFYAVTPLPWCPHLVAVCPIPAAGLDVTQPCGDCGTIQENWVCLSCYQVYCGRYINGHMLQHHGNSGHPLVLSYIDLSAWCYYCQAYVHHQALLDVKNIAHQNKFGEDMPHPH
endpointName: pIC50
Value format note: pIC50 is -log10 of concentration (mol/L); just state the number.

Query: Look at this compound and give its reported pIC50. CS(=O)(=O)N(Cc1ccc(-c2nnc(CF)o2)cn1)c1cccc(Cl)c1
Result: 7.07

----------
pIC50: −log10 of the molar value.
Quick record of pIC50 values for HDAC7 (Homo sapiens).

// worked examples, pIC50 included
> print(dat)
                                   molecule  valuereported
1  CS(=O)(=O)N(Cc1ccc(-c2nnc(C(F)F)o2)cn1)c1cccc(Cl)c1         < 4.70
2  CS(=O)(=O)N(Cc1ccc(-c2nnc(C(F)(F)F)o2)cn1)c1cccc(Cl)c1         < 4.70

Shifting focus to the compound that follows.
Query: Recorded pIC50 for CS(=O)(=O)N(Cc1ccc(C(=O)NN)cn1)c1cccc(Cl)c1 with HDAC7 (Homo sapiens), please?
Result: < 4.70

----------
targetOrSystem: UniProtKB Q13547
Sequence (Q13547 whole entry): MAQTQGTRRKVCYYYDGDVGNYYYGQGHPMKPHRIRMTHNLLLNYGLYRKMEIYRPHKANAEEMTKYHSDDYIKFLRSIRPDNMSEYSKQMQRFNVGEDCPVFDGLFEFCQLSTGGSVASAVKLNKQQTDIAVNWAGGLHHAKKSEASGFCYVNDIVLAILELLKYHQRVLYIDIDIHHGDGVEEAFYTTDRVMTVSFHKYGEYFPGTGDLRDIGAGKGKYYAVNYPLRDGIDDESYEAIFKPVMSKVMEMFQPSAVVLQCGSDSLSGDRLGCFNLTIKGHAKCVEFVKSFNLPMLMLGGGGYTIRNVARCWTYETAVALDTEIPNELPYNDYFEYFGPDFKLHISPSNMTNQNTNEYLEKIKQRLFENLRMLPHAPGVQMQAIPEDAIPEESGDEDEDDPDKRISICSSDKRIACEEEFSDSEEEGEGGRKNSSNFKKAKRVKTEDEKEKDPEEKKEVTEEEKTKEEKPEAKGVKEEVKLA
pIC50: −log10 of the molar value.
endpointName: pIC50

// worked examples, pIC50 included
> print(dat)
                                   compound    targetorsystem  valuereported
1  CS(=O)(=O)N(Cc1ccc(-c2nnc(C(F)(F)F)o2)cn1)c1cccc(Cl)c1 [compound 7]  UniProtKB Q13547         < 4.70
2  CS(=O)(=O)N(Cc1ccc(-c2nnc(C(F)F)o2)cn1)c1cccc(Cl)c1 [compound 8]  UniProtKB Q13547         < 4.70

Query: Recorded pIC50 for CS(=O)(=O)N(Cc1ccc(C(=O)NNC(=O)C(F)(F)F)cn1)c1cccc(Cl)c1 [compound 5] with UniProtKB Q13547, please?
Result: 5.04

----------
Quick record of IC50 values for UniProt:Q9UKV0.
Sequence (Q9UKV0 whole entry): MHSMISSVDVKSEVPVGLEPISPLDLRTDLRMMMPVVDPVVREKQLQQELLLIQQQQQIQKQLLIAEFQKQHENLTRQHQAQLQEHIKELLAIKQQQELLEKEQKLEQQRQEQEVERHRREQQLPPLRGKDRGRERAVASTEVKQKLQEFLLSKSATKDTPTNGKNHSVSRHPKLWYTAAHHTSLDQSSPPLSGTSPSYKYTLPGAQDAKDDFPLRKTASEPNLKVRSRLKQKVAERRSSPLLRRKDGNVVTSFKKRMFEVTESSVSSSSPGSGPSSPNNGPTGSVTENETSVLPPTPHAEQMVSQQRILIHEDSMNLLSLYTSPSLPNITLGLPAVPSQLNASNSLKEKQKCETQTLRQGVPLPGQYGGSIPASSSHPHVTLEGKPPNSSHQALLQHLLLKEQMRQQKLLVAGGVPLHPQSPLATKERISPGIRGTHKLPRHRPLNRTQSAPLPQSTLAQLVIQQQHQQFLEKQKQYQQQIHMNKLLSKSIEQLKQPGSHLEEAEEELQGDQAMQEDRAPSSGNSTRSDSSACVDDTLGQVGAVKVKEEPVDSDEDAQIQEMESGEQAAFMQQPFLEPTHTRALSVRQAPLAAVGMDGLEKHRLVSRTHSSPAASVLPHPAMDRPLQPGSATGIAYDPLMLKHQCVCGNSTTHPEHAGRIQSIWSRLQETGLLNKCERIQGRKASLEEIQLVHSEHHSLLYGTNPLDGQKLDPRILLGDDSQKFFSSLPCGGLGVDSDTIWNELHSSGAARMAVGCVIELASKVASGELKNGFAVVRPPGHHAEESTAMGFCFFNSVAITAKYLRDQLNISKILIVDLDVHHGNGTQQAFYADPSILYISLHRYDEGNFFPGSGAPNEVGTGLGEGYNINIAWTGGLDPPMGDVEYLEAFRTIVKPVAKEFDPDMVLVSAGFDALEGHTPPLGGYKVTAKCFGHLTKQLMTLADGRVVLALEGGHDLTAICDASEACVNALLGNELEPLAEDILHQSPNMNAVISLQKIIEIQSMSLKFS

> print(dat)
                                   compound  endpointname  valuereported
1  CS(=O)(=O)N(Cc1ccc(-c2nnc(C(F)(F)F)o2)cn1)c1cccc(Cl)c1 [compound 7]          IC50        > 20 µM
2  CS(=O)(=O)N(Cc1ccc(-c2nnc(C(F)F)o2)cn1)c1cccc(Cl)c1 [compound 8]          IC50        > 20 µM

Shifting focus to the compound that follows.
Query: Look at this compound and give its reported IC50. CS(=O)(=O)N(Cc1ccc(C(=O)NN)cn1)c1cccc(Cl)c1 [compound 4]
Result: > 20 µM

----------
targetOrSystem: zHDAC6 (WT) (Danio rerio, UniProt F8W4B7)
Sequence (F8W4B7 440-798): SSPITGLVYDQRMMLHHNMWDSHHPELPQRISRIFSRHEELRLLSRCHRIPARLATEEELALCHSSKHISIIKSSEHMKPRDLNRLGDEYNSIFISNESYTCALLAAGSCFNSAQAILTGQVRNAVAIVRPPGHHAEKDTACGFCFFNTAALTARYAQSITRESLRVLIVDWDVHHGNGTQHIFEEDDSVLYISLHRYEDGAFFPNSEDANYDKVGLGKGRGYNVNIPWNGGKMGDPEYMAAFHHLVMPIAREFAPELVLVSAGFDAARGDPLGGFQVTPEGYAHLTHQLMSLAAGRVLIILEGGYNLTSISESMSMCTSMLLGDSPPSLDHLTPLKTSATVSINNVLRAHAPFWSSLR
endpointName: pIC50
Value format note: pIC50 is -log10 of concentration (mol/L); just state the number.

Query: Look at this molecule and give its reported pIC50. CS(=O)(=O)N(Cc1ccc(C(=O)NN)cn1)c1cccc(Cl)c1 [compound 4]
Result: 5.41

----------
targetOrSystem: HDAC11 (Homo sapiens, UniProt Q96DB2)
Construct: made in house; host or cells: HEK293/T17
Sequence (Q96DB2 whole entry): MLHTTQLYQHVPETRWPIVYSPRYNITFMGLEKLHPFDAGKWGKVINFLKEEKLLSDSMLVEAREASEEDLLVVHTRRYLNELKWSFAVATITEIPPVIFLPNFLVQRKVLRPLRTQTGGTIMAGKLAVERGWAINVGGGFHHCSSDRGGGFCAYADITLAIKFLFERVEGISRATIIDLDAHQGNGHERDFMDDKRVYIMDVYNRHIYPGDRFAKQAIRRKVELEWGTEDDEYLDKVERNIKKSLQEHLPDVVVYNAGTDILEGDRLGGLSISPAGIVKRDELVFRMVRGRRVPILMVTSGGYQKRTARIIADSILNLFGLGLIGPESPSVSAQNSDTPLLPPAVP
test: HDAC11 inhibition assay (internally quenched peptide)
Assay type: biochemical
experimentalContext: purified human protein; internally quenched TNFα-derived peptide substrate; 15 min preincubation
Reported IC50 is given for each of the following compounds.

> print(dat)
                                   compound                         targetorsystem  valuereported
1  CS(=O)(=O)N(Cc1ccc(C(=O)NN)cn1)c1cccc(Cl)c1 [compound 4]  HDAC11 (Homo sapiens, UniProt Q96DB2)        > 20 µM

Query: Look at this compound and give its reported IC50. CS(=O)(=O)N(Cc1ccc(-c2nnc(C(F)F)o2)cn1)c1cccc(Cl)c1 [compound 8]
Result: > 20 µM

----------
Target chain: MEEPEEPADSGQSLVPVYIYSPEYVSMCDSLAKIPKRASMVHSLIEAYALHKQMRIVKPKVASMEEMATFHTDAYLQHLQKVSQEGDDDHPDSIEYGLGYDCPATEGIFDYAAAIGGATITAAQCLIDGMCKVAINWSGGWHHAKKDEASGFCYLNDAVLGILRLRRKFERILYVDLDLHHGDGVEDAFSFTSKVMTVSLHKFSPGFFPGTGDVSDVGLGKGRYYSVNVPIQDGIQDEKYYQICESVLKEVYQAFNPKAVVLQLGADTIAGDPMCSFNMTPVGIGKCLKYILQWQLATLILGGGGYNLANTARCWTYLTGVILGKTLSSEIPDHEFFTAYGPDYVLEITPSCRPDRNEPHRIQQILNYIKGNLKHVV
endpointName: IC50

Query: Look at this molecule and give its reported IC50. CS(=O)(=O)N(Cc1ccc(-c2nnc(C(F)F)o2)cn1)c1cccc(Cl)c1 [compound 8]
Result: > 20 µM

----------
targetOrSystem: zHDAC6 (Y745F) (Danio rerio, UniProt F8W4B7, Y745F)
Construct: Danio rerio HDAC6 (amino acids 440–798; zHDAC6); His (N, cleaved yes); MBP (N, cleaved yes)
Sequence (F8W4B7 440-798 Y745F): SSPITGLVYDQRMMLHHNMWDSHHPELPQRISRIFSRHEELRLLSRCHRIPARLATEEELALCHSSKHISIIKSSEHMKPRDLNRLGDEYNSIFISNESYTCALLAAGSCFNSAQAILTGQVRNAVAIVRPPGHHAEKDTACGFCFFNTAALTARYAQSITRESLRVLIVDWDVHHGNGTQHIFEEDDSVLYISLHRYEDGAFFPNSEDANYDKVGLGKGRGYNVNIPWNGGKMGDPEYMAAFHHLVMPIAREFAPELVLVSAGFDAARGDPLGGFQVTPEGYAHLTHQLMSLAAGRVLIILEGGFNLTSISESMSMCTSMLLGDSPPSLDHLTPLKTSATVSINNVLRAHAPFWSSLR
test: Inhibition assay, zebrafish HDAC6 catalytic DD2 domain, Y745F mutant
Reported IC50 is given for each of the following molecules.

// worked examples, IC50 included
> print(dat)
                                   molecule  endpointname  valuereported
1  CS(=O)(=O)N(Cc1ccc(-c2nnc(C(F)F)o2)cn1)c1cccc(Cl)c1 [compound 8]          IC50       0.075 µM
2  CS(=O)(=O)N(Cc1ccc(C(=O)NN)cn1)c1cccc(Cl)c1 [compound 4]          IC50        > 50 µM
3  CS(=O)(=O)N(Cc1ccc(C(=O)NNC(=O)C(F)F)cn1)c1cccc(Cl)c1 [compound 6]          IC50        > 50 µM

Query: Look at this molecule and give its reported IC50. CS(=O)(=O)N(Cc1ccc(-c2nnc(C(F)(F)F)o2)cn1)c1cccc(Cl)c1 [compound 7]
Result: 0.311 µM

Query: Look at this molecule and give its reported IC50. CS(=O)(=O)N(Cc1ccc(-c2nnc(CF)o2)cn1)c1cccc(Cl)c1 [compound 9]
Result: > 20 µM

Query: Look at this molecule and give its reported IC50. CS(=O)(=O)N(Cc1ccc(C(=O)NNC(=O)C(F)(F)F)cn1)c1cccc(Cl)c1 [compound 5]
Result: > 20 µM
